# assay_info: Rat pharmacokinetics, oral gavage
# Format: in vivo, Sprague-Dawley rats
# recorded_conditions: male, Sprague-Dawley, rat, plasma, po, 25 mg/kg, rat PO 25 mg/kg, male, mean; read-out: Tmax
# Protocol: Groups, Dosing, and Collection. […] Appropriate serial concentrations of working solutions were achieved by diluting stock solution of analyte with 50% acetonitrile in water solution. […] 2 μL of the supernatant was injected into the LC/MS/MS system for quantitative analysis. […]
Structures can show the parent of a compound that is named as a salt.
quantity_kind: Tmax

Q: Please give the measured Tmax for this compound: CC(C)(OCc1cc(-c2cccc(OC3CCC3)c2)n(-c2ccccc2N2CCC2)n1)C(=O)O [Compound 1 tris salt]
A: 2.86 h
